Target: Integrin alpha-4 (Homo sapiens)
Test: retest of VLA-4 allosteric modulators, confirmation, cell-based, cherry-picked plates, U937, HUTS-21 LIBS antibody (AID 2813);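 note: 0% = ligand without compound and 100% = no ligand background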
Conditions: U937 cells, HUTS-21 LIBS mAb binding, flow cytometry; at 6.7 µM; hits give high values; LDV ligand present at threefold Kd
About 20 (2%) of roughly 1,300 compounds were called active. The list is a sample of the results.
Measured inhibition, listed per entry for reference.
Report only the number, with the unit % understood.

These recorded examples may help you get a feel for the data.
[[record]]
molecule = "CC(=O)c1ccc(N2CCN(S(=O)(=O)c3ccc4c(c3)CC(=O)N4C)CC2)cc1"
measurement = -9.51

[[record]]
molecule = "COc1cccc(N2CCN(C3CC(=O)N(c4ccc(Cl)cc4)C3=O)CC2)c1 (stereo not drawn)"
measurement = 3.08


Moving on to the next molecule.
Asked: Which measured inhibition belongs to CC(=O)c1ccc(NC(=O)Cn2c(=O)oc3ccccc32)cc1 , tested on Integrin alpha-4 (Homo sapiens)?
Given back: 2.42

====

Biological target: Integrin alpha-4 (Homo sapiens) (UniProt P13612)
Sequence (P13612 whole entry, looked up): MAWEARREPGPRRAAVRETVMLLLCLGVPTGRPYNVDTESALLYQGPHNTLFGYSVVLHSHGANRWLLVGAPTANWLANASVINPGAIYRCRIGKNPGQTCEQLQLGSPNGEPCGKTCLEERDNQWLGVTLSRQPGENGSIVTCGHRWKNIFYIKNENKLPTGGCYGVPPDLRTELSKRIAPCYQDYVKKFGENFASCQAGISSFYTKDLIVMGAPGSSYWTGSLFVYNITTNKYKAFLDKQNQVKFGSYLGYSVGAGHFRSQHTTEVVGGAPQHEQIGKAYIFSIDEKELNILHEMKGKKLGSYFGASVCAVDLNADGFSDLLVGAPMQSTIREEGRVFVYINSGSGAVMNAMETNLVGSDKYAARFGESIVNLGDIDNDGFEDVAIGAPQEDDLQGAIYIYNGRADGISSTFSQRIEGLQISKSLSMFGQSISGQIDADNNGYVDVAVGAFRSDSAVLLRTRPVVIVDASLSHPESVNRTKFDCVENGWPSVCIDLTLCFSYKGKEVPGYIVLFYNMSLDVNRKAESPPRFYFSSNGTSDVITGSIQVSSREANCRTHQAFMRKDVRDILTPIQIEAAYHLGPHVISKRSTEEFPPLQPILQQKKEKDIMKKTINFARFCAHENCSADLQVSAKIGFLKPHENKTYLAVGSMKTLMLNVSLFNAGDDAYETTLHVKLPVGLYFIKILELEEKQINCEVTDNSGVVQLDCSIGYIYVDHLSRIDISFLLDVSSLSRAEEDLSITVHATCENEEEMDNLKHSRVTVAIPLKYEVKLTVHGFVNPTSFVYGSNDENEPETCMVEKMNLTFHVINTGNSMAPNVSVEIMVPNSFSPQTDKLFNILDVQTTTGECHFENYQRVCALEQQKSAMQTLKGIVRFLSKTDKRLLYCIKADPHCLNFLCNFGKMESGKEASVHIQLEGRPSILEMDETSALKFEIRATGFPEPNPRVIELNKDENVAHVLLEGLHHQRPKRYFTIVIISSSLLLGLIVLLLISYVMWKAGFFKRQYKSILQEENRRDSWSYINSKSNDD
Assay: retest of VLA-4 allosteric modulators, confirmation, cell-based, cherry-picked plates, U937, HUTS-21 LIBS antibody (AID 2813);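 note: 0% = ligand without compound and 100% = no ligand background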
Conditions: U937 cells, HUTS-21 LIBS mAb binding, flow cytometry; at 6.7 µM; hits give high values; LDV ligand present at threefold Kd
Screen size: about 1,300 compounds; about 20 (2%) were called active. Not all results are given here.
EXPERIMENTAL_READOUT: inhibition (%)
Report only the number, with the unit % understood.

These recorded examples may help you get a feel for the data.
[[record]]
molecule = "CCOC(=O)C1(S(=O)(=O)c2ccc(Cl)cc2)CCN(Cc2ccccc2)CC1"
measured_target = "Integrin alpha-4 (Homo sapiens) (UniProt P13612)"
output_unit = "%"
measurement = 5.07

[[record]]
molecule = "Cc1cc(C)n(CC(O)CN(c2ccccc2)S(=O)(=O)c2ccc3ccccc3c2)n1 (stereo not given)"
measured_target = "Integrin alpha-4 (Homo sapiens) (UniProt P13612)"
output_unit = "%"
measurement = 11.9

[[record]]
molecule = "O=C(Nn1c(-c2ccccc2)nc2ccccc2c1=O)c1ccc([N+](=O)[O-])cc1"
measured_target = "Integrin alpha-4 (Homo sapiens) (UniProt P13612)"
output_unit = "%"
measurement = -13.4

[[record]]
molecule = "CCCOc1ccc(N2C(=O)CC(N(CCc3ccc(S(N)(=O)=O)cc3)C(C)=O)C2=O)cc1 (stereo not given)"
measured_target = "Integrin alpha-4 (Homo sapiens) (UniProt P13612)"
output_unit = "%"
measurement = -1.15


Asked: Which measured inhibition belongs to COC(=O)N/N=C/c1c[n+]([O-])c2ccccc2[n+]1[O-] , tested on Integrin alpha-4 (Homo sapiens) (UniProt P13612)?
Given back: 1.64

Asked: How about CC(OC(=O)c1c(F)cccc1F)C(=O)NCCC1=CCCCC1 (stereo not given) ?
Given back: 1.98

Asked: How about Cc1cc(C)cc(C(=O)NCC(=O)OCC(=O)N2CCCCC2)c1 ?
Given back: 13.7

Asked: How about Cc1nn(Cc2ccc(Cl)c(Cl)c2)c(C)c1NC(=O)c1cc(C2CC2)on1 ?
Given back: -4.2

Asked: How about COCCNC(=O)Cn1cc2c(n1)CCCCC2 ?
Given back: 3.34

Asked: How about COC(=O)[C@]1(Cc2ccccc2)N[C@H](CN(C)S(=O)(=O)c2ccc(OC(F)(F)F)cc2)[C@@H]2C(=O)N(Cc3ccccc3)C(=O)[C@@H]21 ?
Given back: -5.51

All figures here come from PubChem BioAssay AID2813.
